- Test system: MYO3B
- APPLIED CONDITIONS: concentration: 1 μM, replicates: in singlicate; n = 1;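 note: KINOMEscan kinase panel screen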
PARAMETER: %Inh (%)
The reply should be a number in %, with the unit left off.

Illustrative cases are given below, each with its answer.
SMI: Fc1cccc(COc2nnc(-c3ccc4c(c3)CCO4)o2)c1
%Inh (%): 5
--
SMI: C[C@@H]1CCCCN1c1cc(-c2ccc3c(N)n[nH]c3c2)nc(N)n1
%Inh (%): 0
--
SMI: Nc1nc(-c2nccs2)c(-c2ccnc3ccccc23)s1
%Inh (%): 0

# return recorded %Inh for entry "Cc1ccccc1-n1cnc2c(N)ncnc21"
42

# return recorded %Inh for entry "Cc1csc(-c2nc(Nc3ccncc3)c3ccccc3n2)n1"
36

* * *

- Test system: CAMK1
- APPLIED CONDITIONS: concentration: 1 μM, replicates: in singlicate; n = 1
PARAMETER: %Inh
A complete answer gives the number and then names the unit.

Illustrative cases are given below, each with its answer.
SMI: COC(=O)c1c(-c2ccccc2)c2cc(OC)ccc2c(=O)n1Cc1ccccc1
STUDY TARGET: CAMK1
PARAMETER: %Inh
OBSERVED VALUE: 19%

SMI: CN1C(=O)C(Nc2ccc(Cl)c(C(=O)O)c2)=C(c2ccc(Cl)cc2)C1=O
STUDY TARGET: CAMK1
PARAMETER: %Inh
OBSERVED VALUE: 22%

SMI: Cc1csc(-c2nc(Nc3ccncc3)c3ccccc3n2)n1
STUDY TARGET: CAMK1
PARAMETER: %Inh
OBSERVED VALUE: 5%

SMI: Cn1ccc2ncnc(Oc3ccc(NC(=O)Nc4ccccc4)cc3)c21
STUDY TARGET: CAMK1
PARAMETER: %Inh
OBSERVED VALUE: 0%

SMI: Fc1cc(Cl)ccc1Nc1ccnc2cc(-c3ccc(CN4CCCCC4)o3)ccc12
STUDY TARGET: CAMK1
PARAMETER: %Inh
OBSERVED VALUE: 3%

SMI: Cc1cccc(-c2nc(Nc3ccc4[nH]ncc4c3)c3ccccc3n2)n1
STUDY TARGET: CAMK1
PARAMETER: %Inh
OBSERVED VALUE: 0%

SMI: Cc1cccc(-c2cc(Nc3ccncc3)c3ccccc3n2)n1
STUDY TARGET: CAMK1
PARAMETER: %Inh
OBSERVED VALUE: 17%

SMI: Cc1ccc(NC(=O)Nc2cc(C(C)(C)C)nn2-c2ccccc2)cc1
STUDY TARGET: CAMK1
PARAMETER: %Inh
OBSERVED VALUE: 0%

# return recorded %Inh for entry "COc1ccc(Nc2nccc(NCCNC(=O)Nc3ccccc3F)n2)cc1"
1%

# return recorded %Inh for entry "COc1ccc(Nc2nccc(-c3cccc(NC(=O)c4cc5cc(F)ccc5[nH]4)c3)n2)cc1"
36%

# return recorded %Inh for entry "Cl.Oc1ccc(-c2nc(-c3ccccc3)[nH]c2-c2ccncc2)cc1"
2%

* * *

- System: NDR1
- Construct: gene STK38
- APPLIED CONDITIONS: concentration: 1 μM, replicates: in singlicate; n = 1
Measured %Inh accompanies every entry in the list below.
A complete answer gives the number and then names the unit.

Illustrative cases are given below, each with its answer.
COMPOUND: CC(C)(C)c1ccc(C(=O)Nc2cn3cc(Cl)ccc3n2)cc1
OBSERVED VALUE: 99.7%
--
COMPOUND: Cc1nnc(-c2ccc3occ(-c4ccc(S(C)=O)cc4)c3c2)[nH]1 (centres unmarked)
OBSERVED VALUE: 1%
--
COMPOUND: Cl.O=C(Nc1cccc(-c2nn3ncccc3c2-c2ccnc(Nc3cccnc3)n2)c1)c1c(F)cccc1F
OBSERVED VALUE: 0%
--
COMPOUND: CC1=C(C(=O)Nc2cc3cn[nH]c3cc2F)C(c2ccc(C(F)(F)F)cc2)CC(=O)N1 (centres unmarked)
OBSERVED VALUE: 23%

# next compound below
# return recorded %Inh for entry "Cc1ccc(C(=O)Nc2ccc(Nc3ccnc4cc(-c5ccccn5)ccc34)cc2O)cc1.Cl"
6%

* * *

- System: ADCK3
- Construct: gene CABC1
- APPLIED CONDITIONS: concentration: 1 μM, replicates: in singlicate; n = 1
For each record, check the reported %Inh: if it is below 20% write Satisfied, else write Not satisfied.

A selection of reference data follows.
SMI: O=C1NC(=O)C(N2CCc3ccccc32)=C1c1ccccc1Cl
GROUP: Satisfied
--
SMI: Cc1c(Cn2ccn3c(=O)cc(N4CCOCC4)nc23)cccc1C(F)(F)F
GROUP: Not satisfied
--
SMI: Cl.NC(=O)c1cccc(Nc2nccc(Nc3ccc(Oc4cccc(Cl)c4)c(Cl)c3)n2)c1
GROUP: Satisfied

Is %Inh of "Clc1cc(Cl)cc(Nc2ccnc(Nc3cc(Cl)cc(Cl)c3)n2)c1" strictly below 20%?
Not satisfied

Is %Inh of "Cc1ccc(NC(=O)Nc2cc(C(C)(C)C)nn2-c2ccccc2)cc1" strictly below 20%?
Not satisfied

Is %Inh of "O=C(O)COc1ncnc2cc(-c3ccc4[nH]ncc4c3)sc12" strictly below 20%?
Satisfied

* * *

- System: PIK3CB
- APPLIED CONDITIONS: concentration: 1 μM, replicates: in singlicate; n = 1
Measured %Inh accompanies every entry in the list below.
The reply should be a number in %, with the unit left off.

Illustrative cases are given below, each with its answer.
COMPOUND: CN(C)CCN(C)C(=O)c1cc(-c2ccncc2)c(-c2ccc(Cl)c(O)c2)o1.Cl.Cl
QUANTITY UNIT: %
OBSERVED VALUE: 18
//
COMPOUND: Cc1ccc(-c2cc(-c3c[nH]nc3-c3ccccn3)ccn2)cc1
QUANTITY UNIT: %
OBSERVED VALUE: 8
//
COMPOUND: Cc1nnc(-c2ccc3occ(-c4ccc(S(C)=O)cc4)c3c2)[nH]1 (stereo not drawn)
QUANTITY UNIT: %
OBSERVED VALUE: 28
//
COMPOUND: COC(=O)c1c(-c2ccccc2)c2cc(OC)ccc2c(=O)n1Cc1ccccc1
QUANTITY UNIT: %
OBSERVED VALUE: 14
//
COMPOUND: O=C(Nc1ccc2c(c1)OCO2)NC1CCN(c2ccnc(Nc3ccc(F)cc3)n2)C1 (stereo not drawn)
QUANTITY UNIT: %
OBSERVED VALUE: 0

# return recorded %Inh for entry "C[C@@H]1CCCCN1c1cc(-c2ccc3c(N)n[nH]c3c2)nc(N)n1"
0

* * *

Measured %Inh accompanies every entry in the list below.
- System: JNK3
- Construct: gene MAPK10
- APPLIED CONDITIONS: concentration: 1 μM, replicates: in singlicate; n = 1
The reply should be a number in %, with the unit left off.

Illustrative cases are given below, each with its answer.
SMI: Cn1ccc2ncnc(Oc3cccc(C(=O)Nc4ccccc4)c3)c21
%Inh, %: 0
--
SMI: Cl.c1ccc(-c2n[nH]cc2-c2ccnc(-c3ccc(CN4CCOCC4)cc3)c2)nc1
%Inh, %: 20
--
SMI: COc1ccc(Nc2nccc(-c3cccc(NC(=O)c4cc5cc(F)ccc5[nH]4)c3)n2)cc1
%Inh, %: 15

# return recorded %Inh for entry "O=C(O)COc1ncnc2cc(-c3ccc4[nH]ncc4c3)sc12"
15

# return recorded %Inh for entry "CCn1c(-c2cccnc2O)nc2cnccc21"
1

# return recorded %Inh for entry "Cc1cccc(-c2nc(Nc3cccc(C(N)=O)c3)c3ccccc3n2)n1"
0

# return recorded %Inh for entry "Cc1ccc(NC(=O)Nc2cc(C(C)(C)C)nn2-c2ccccc2)cc1"
10

# return recorded %Inh for entry "COC(=O)c1c(-c2ccccc2)c2cc(OC)ccc2c(=O)n1Cc1ccccc1"
85

* * *

- Test system: YSK1
- Construct: gene STK25
- APPLIED CONDITIONS: concentration: 1 μM, replicates: in singlicate; n = 1
Measured %Inh accompanies every entry in the list below.
The reply should be a number in %, with the unit left off.

COMPOUND: Fc1cc(Cl)ccc1Nc1ccnc2cc(-c3ccc(CN4CCCCC4)o3)ccc12
STUDY TARGET: YSK1
QUANTITY UNIT: %
%Inh: 17
--
COMPOUND: Cc1c(Cn2ccn3c(=O)cc(N4CCOCC4)nc23)cccc1C(F)(F)F
STUDY TARGET: YSK1
QUANTITY UNIT: %
%Inh: 0

# return recorded %Inh for entry CCCc1ccc(S(=O)(=O)NC2CCN(c3ccnc(Nc4ccc(F)cc4)n3)C2)cc1 (stereo not shown)
100

# return recorded %Inh for entry COc1ccc(CNC(=O)NC2CCN(c3ccnc(Nc4cc(OC)c(OC)c(OC)c4)n3)C2)cc1 (stereo not shown)
9

# return recorded %Inh for entry "Cn1ccc2ncnc(Oc3ccc(Nc4nc5ccccc5[nH]4)cc3)c21"
0

# return recorded %Inh for entry "Cl.O=C(Nc1cccc(-c2nn3ncccc3c2-c2ccnc(Nc3cccnc3)n2)c1)c1c(F)cccc1F"
0

# return recorded %Inh for entry "Cc1ccc(NC(=O)Nc2cccc(Cl)c2)cc1-c1ccc(C(=O)Nc2ccncc2)cc1"
14

# return recorded %Inh for entry "Nc1ncnc2[nH]c(-c3ccccc3)nc12"
0

# return recorded %Inh for entry "CCn1c(-c2cccnc2O)nc2cnccc21"
0

# return recorded %Inh for entry "Cn1ccc2ncnc(Oc3cccc(C(=O)Nc4ccccc4)c3)c21"
0

# return recorded %Inh for entry "COc1cc2nccc(Nc3ccc(NC(=O)c4ccc(C)cc4)c(O)c3)c2cc1OC.Cl"
20

# return recorded %Inh for entry "CN1C(=O)C(Nc2ccc(Cl)c(C(=O)O)c2)=C(c2ccc(Cl)cc2)C1=O"
0

# return recorded %Inh for entry "Cc1ccc(-c2cc(-c3c[nH]nc3-c3ccccn3)ccn2)cc1"
10

# return recorded %Inh for entry "Cl.Oc1ccc(-c2nc(-c3ccccc3)[nH]c2-c2ccncc2)cc1"
4

# return recorded %Inh for entry "Cc1cccc(-c2nc(C)cc(Nc3ccncc3)n2)n1"
8

# return recorded %Inh for entry "Cc1cccc(-c2nc(Nc3cccc(C(N)=O)c3)c3ccccc3n2)n1"
12

# return recorded %Inh for entry CC1=C(C(=O)Nc2cc3cn[nH]c3cc2F)C(c2ccc(C(F)(F)F)cc2)CC(=O)N1 (stereo not shown)
0

# return recorded %Inh for entry "COc1ccccc1-c1ccc2c(NC(=O)C3CC3)n[nH]c2n1"
0

# return recorded %Inh for entry "Cc1ccc(NC(=O)Nc2cc(C(C)(C)C)nn2-c2ccccc2)cc1"
0
